Tested on: PtJBMTm3
Assay: Radiochemical methyltransferase assay (detoxification activity) with PtJBMTm3
Format: biochemical
Settings: 1 mM substrate, 3 μM 14C-SAM, 25° C., 30 min; relative to the activity of PtJBMTm3 with jasmonic acid set as 1
Recorded metric: Relative assay activity of PtJBMT M3 (%)
Give bare numbers, in %.

# count of solved cases: 3
Cc1cc(Cl)ccc1OC(C)C(=O)O (stereo not shown): 87.5
CC(Oc1ccc(Cl)cc1Cl)C(=O)O (stereo not shown): 73.0
O=C(O)CCCOc1ccc(Cl)cc1Cl: 38.7

Below are 4 molecules. Give each one its Relative assay activity of PtJBMT M3.
1. CC(C)(Oc1ccc(Cl)cc1)C(=O)O
2. Cc1cc(Cl)ccc1OCCCC(=O)O
3. COc1c(Cl)ccc(Cl)c1C(=O)O
4. Cc1cc(Cl)ccc1OCC(=O)O

Reply:
96.9
11.0
73.9
70.0

* * *

Record form. Attribute: Relative assay activity of PtJBMT. Fill in for each entry.
Test system: PtJBMT
Experiment: Radiochemical methyltransferase assay (detoxification activity) with PtJBMT
Assay type: biochemical
Settings: 1 mM substrate, 3 μM 14C-SAM, 25° C., 30 min; relative to the activity of PtJBMTm3 with jasmonic acid set as 1
Give bare numbers, in %.

Solved entries:
CC(C)(Oc1ccc(Cl)cc1)C(=O)O [PCIB]: 8.0
O=C(O)CCCOc1ccc(Cl)cc1Cl [2,4-DB]: 0.5
O=C(O)CCCc1c[nH]c2ccccc12 [IBA]: 0.8
Cc1cc(Cl)ccc1OCCCC(=O)O [MCPB]: 0.1
O=C(O)c1c(Cl)ccc2cc(Cl)cnc12 [quinclorac]: 11.2
Cc1cc(Cl)ccc1OCC(=O)O [MCPA]: 3.5

Would you kindly look at the next entry?
Ask: What measured Relative assay activity of PtJBMT is associated with O=C(O)c1c(Cl)ccc(Cl)c1Cl [2,3,6 Trichloro-benzoic acid] on PtJBMT?
Reply: 15.0

* * *

Tested on: PtJBMT
Assay: Radiochemical methyltransferase assay (detoxification activity) with PtJBMT
Type: biochemical
Details: 1 mM substrate, 3 μM 14C-SAM, 25° C., 30 min; relative to the activity of PtJBMTm3 with jasmonic acid set as 1
I'd be grateful if you could share measured Relative assay activity of PtJBMT for these entries.
Numbers only, in %.

Recorded Relative assay activity of PtJBMT, per entry:
COc1c(Cl)ccc(Cl)c1C(=O)O: 2.3
CC(Oc1ccc(Cl)cc1Cl)C(=O)O (stereo not drawn): 7.3
O=C(O)COc1cc(Cl)c(Cl)cc1Cl: 0.4
O=C(O)Cc1ccccc1: 0.8
O=C(O)c1nc(Cl)ccc1Cl: 17.1
Nc1c(Cl)c(Cl)nc(C(=O)O)c1Cl: 3.7

List reported Relative assay activity of PtJBMT for each of these molecules:
1. CC/C=C\C[C@H]1C(=O)CC[C@@H]1CC(=O)O
2. Nc1c(Cl)c(F)nc(OCC(=O)O)c1Cl
3. O=C(O)COc1ccc(Cl)cc1Cl
4. O=C(O)Cc1cccc2ccccc12

Reply:
[85.1, 0.6, 1.7, 7.8]

Provide reported Relative assay activity of PtJBMT for each item, in the same order as listed.
1. O=C(O)Cc1c[nH]c2cccc(Cl)c12
2. Cc1cc(Cl)ccc1OC(C)C(=O)O (stereo not drawn)

Reply:
1.1
12.8
